system: HCC1954 cells; experiment: In vitro cell killing assay of payloads (cell proliferation, Cell-Titer-Glo); assay type: cell-based; conditions: Homo sapiens, 120 h; HCC1954 cells; Cell-Titer-Glo after five days; Table 2b; read-out: In vitro cell killing (IC50 (nM)) HCC1954
Non-standard residues stand in square brackets, D forms with d. Residues, ends and D or L forms follow the SMILES beside them. *: point of attachment. Dolaproine = CO[C@@H]([C@@H]1CCCN1)[C@@H](C)C(=O)O; Dil = CC[C@H](C)[C@H](NC)[C@@H](CC(=O)O)OC; X2 = CN1[C@@H]2CC[C@@H](C2)[C@H]1C(=O)*; Phe(ol) = N[C@H](CO)Cc1ccccc1
endpoint: IC50 (nM)
Response body: numeric value in nM, unit text excluded.

{"compound": "CC[C@H](C)[C@@H]([C@@H](CC(=O)N1CCC[C@H]1[C@H](OC)[C@@H](C)C(=O)N[C@H](COC)Cc1cccc(N)c1)OC)N(C)C(=O)[C@@H](NC(=O)[C@@H]1[C@H]2CC[C@H](C2)N1C)C(C)C", "endpoint": "IC50", "data_value": 0.079}

Then there is this compound:
Exercise: Recall the recorded IC50 for CC[C@H](C)[C@@H]([C@@H](CC(=O)N1CCC[C@H]1[C@H](OC)[C@@H](C)C(=O)N[C@H](CO)Cc1ccccc1)OC)N(C)C(=O)[C@@H](NC(=O)[C@@H]1[C@H]2CC[C@H](C2)N1C)C(C)C [Compound 51] (X2-V[Dil][Dolaproine][Phe(ol)]) with HCC1954 cells and state it.
Solution: 0.028

The reported numbers originate from patent US9988420B2.
